Enterococcus faecalis data, read-out MIC
MEASURED QUANTITY: MIC (µM)

CSCC[C@H](NC(=O)[C@H](C)NC(=O)[C@H](CC(C)C)NC(=O)[C@H](CS)NC(=O)[C@H](Cc1cnc[nH]1)NC(=O)[C@H](C)NC(=O)[C@H](C)N)C(=O)N[C@@H](CCCN=C(N)N)C(=O)N[C@@H](CCCN=C(N)N)C(=O)N[C@@H](CCCCN)C(N)=O [AAHCLAMRRK]: 30

A = CC(C)C[C@H](NC(=O)[C@H](CS)NC(=O)[C@H](CCCN=C(N)N)NC(=O)[C@H](C)NC(=O)[C@H](C)N)C(=O)N[C@@H](CO)C(=O)N[C@@H](CCC(N)=O)C(=O)N[C@@H](CCCN=C(N)N)C(=O)N[C@@H](CCCN=C(N)N)C(=O)N[C@@H](CCCCN)C(N)=O
B = CC[C@H](C)[C@H](NC(=O)[C@H](CS)NC(=O)[C@H](Cc1cnc[nH]1)NC(=O)[C@H](CC(C)C)NC(=O)[C@H](C)N)C(=O)N[C@@H](C)C(=O)N[C@@H](CC(C)C)C(=O)N[C@@H](CCCN=C(N)N)C(=O)N[C@@H](CCCCN)C(=O)N[C@@H](CCCCN)C(N)=O
Which item exceeds the other in MIC, A or B ? I would appreciate it if you answered with the label of your choice. A

----------
# Tested on: Candida albicans F7-39/IDE99
MIC overview
Report the figure in µM without appending any unit label.

CC[C@H](C)[C@H](NC(=O)CN)C(=O)N[C@@H](CC(C)C)C(=O)N[C@@H](CO)C(=O)N[C@@H](CO)C(=O)N[C@@H](CC(C)C)C(=O)N[C@@H](CC(C)C)C(=O)N[C@@H](CCCCN)C(=O)N[C@@H](CCCCN)C(=O)N[C@@H](CC(C)C)C(=O)N[C@@H](CCCCN)C(=O)N[C@@H](CCCCN)C(=O)N[C@H](C(=O)N[C@H](C(=O)N[C@@H](C)C(=O)N[C@@H](CCCCN)C(N)=O)[C@@H](C)CC)[C@@H](C)CC: 10

Proceeding to the next molecule to report its MIC.
Would you mind telling me what MIC value was observed for `CC[C@H](C)[C@H](NC(=O)CN)C(=O)N[C@@H](CCSC)C(=O)N[C@@H](CO)C(=O)N[C@@H](CO)C(=O)N[C@@H](CC(C)C)C(=O)N[C@@H](CCSC)C(=O)N[C@@H](CCCCN)C(=O)N[C@@H](CCCCN)C(=O)N[C@@H](CC(C)C)C(=O)N[C@@H](C)C(=O)N[C@@H](C)C(=O)N[C@H](C(=O)N[C@H](C(=O)N[C@@H](C)C(=O)N[C@@H](CCCCN)C(N)=O)[C@@H](C)CC)[C@@H](C)CC` ? 8.4

----------
# Tested on: Staphylococcus aureus ATCC 43300
MEASURED QUANTITY: MIC (µM)
Report the figure in µM without appending any unit label.

CC[C@H](C)[C@H](NC(=O)CNC(=O)[C@H](CCCCN)NC(=O)[C@H](CC(C)C)NC(=O)[C@@H](N)Cc1ccccc1)C(=O)N[C@H](C(=O)NCC(=O)N[C@@H](CCSC)C(=O)N[C@@H](CC(C)C)C(=O)NCC(=O)N[C@@H](CCCCN)C(=O)N[C@@H](CC(C)C)C(=O)N[C@@H](Cc1ccccc1)C(N)=O)C(C)C [FLKGIVGMLGKLF]: 3

Proceeding to the next molecule to report its MIC.
Would you mind telling me what MIC value was observed for CC[C@H](C)[C@H](NC(=O)[C@H](C)NC(=O)[C@H](CCCCN)NC(=O)[C@H](CCCN=C(N)N)NC(=O)[C@@H](NC(=O)[C@H](CC(C)C)NC(=O)[C@H](CO)NC(=O)[C@H](Cc1ccccc1)NC(=O)[C@H](CC(C)C)NC(=O)[C@@H](N)Cc1ccccc1)[C@@H](C)CC)C(=O)NCC(=O)NCC(=O)N[C@@H](CC(C)C)C(=O)N[C@H](C(=O)N[C@@H](CO)C(=O)N[C@@H](C)C(=O)N[C@@H](Cc1ccccc1)C(=O)N[C@@H](CCCCN)C(=O)O)[C@@H](C)CC [FLFSLIRKAIGGLISAFK] ? 5

----------
# System: Candida albicans ATCC 10231
MEASURED QUANTITY: MIC (µM)

CC[C@H](C)[C@H](NC(=O)CN)C(=O)N[C@@H](CC(C)C)C(=O)N[C@@H](CC(=O)O)C(=O)N[C@H](C(=O)N[C@@H](CC(C)C)C(=O)N[C@@H](CC(N)=O)C(=O)N[C@@H](CCCCN)C(=O)N[C@H](C(=O)N[C@@H](CO)C(=O)N[C@@H](CC(N)=O)C(=O)N[C@@H](CC(C)C)C(=O)N[C@@H](Cc1ccccc1)C(N)=O)C(C)C)[C@@H](C)CC [GILDILNKVSNLF]: 31.2
NCCCC[C@H](NC(=O)[C@H](Cc1ccccc1)NC(=O)[C@H](Cc1ccccc1)NC(=O)[C@H](CCCCN)NC(=O)[C@H](Cc1ccccc1)NC(=O)[C@H](Cc1ccccc1)NC(=O)[C@H](CCCCN)NC(=O)[C@H](Cc1ccccc1)NC(=O)[C@H](Cc1ccccc1)NC(=O)[C@@H](N)CCCCN)C(N)=O [KFFKFFKFFK]: 20

I = CC[C@H](C)[C@H](N)C(=O)N[C@@H](CCCN=C(N)N)C(=O)N[C@H](C(=O)N[C@@H](CCCCN)C(=O)N[C@H](C(=O)N[C@@H](CCCN=C(N)N)C(=O)N[C@H](C(=O)N[C@@H](CCCCN)C(N)=O)[C@@H](C)CC)[C@@H](C)CC)[C@@H](C)CC [IRIKIRIK]
II = C[C@H](NC(=O)[C@H](CCCCN)NC(=O)[C@H](Cc1c[nH]c2ccccc12)NC(=O)CNC(=O)[C@H](Cc1c[nH]c2ccccc12)NC(=O)[C@@H]1CCCN1C(=O)[C@H](CCCCN)NC(=O)[C@H](CCCCN)NC(=O)CN)C(=O)N[C@@H](CCCCN)C(N)=O [GKKPWGWKAK]
Please indicate which item has the smaller measured MIC: I versus II I would appreciate it if you answered with the label of your choice. I

----------
# Test system: Saccharomyces cerevisiae
MEASURED QUANTITY: MIC (µM)
Report the figure in µM without appending any unit label.

Would you mind telling me what MIC value was observed for CC[C@H](C)[C@H](NC(=O)CNC(=O)[C@H](CCCCN)NC(=O)[C@H](CC(C)C)NC(=O)[C@@H](N)Cc1ccccc1)C(=O)N[C@H](C(=O)NCC(=O)N[C@@H](CCSC)C(=O)N[C@@H](CC(C)C)C(=O)NCC(=O)N[C@@H](CCCCN)C(=O)N[C@@H](CC(C)C)C(=O)N[C@@H](Cc1ccccc1)C(N)=O)C(C)C [FLKGIVGMLGKLF] ? 3

----------
# System: Escherichia coli
MEASURED QUANTITY: MIC (µM)
Report the figure in µM without appending any unit label.

CC[C@H](C)[C@H](N)C(=O)N[C@@H](CC(N)=O)C(=O)N[C@@H](Cc1c[nH]c2ccccc12)C(=O)N[C@@H](CCCCN)C(=O)N[C@@H](CCCCN)C(=O)N[C@H](C(=O)N[C@@H](C)C(=O)N[C@@H](CO)C(=O)N[C@H](C(=O)NCC(=O)N[C@@H](CCCCN)C(=O)N[C@@H](CCC(=O)O)C(=O)N[C@H](C(=O)N[C@@H](CC(C)C)C(N)=O)C(C)C)[C@@H](C)CC)[C@@H](C)CC [INWKKIASIGKEVL]: 100

Proceeding to the next molecule to report its MIC.
Escherichia coli / MIC / CC(C)[C@H](NC(=O)CNC(=O)[C@H](CCCN=C(N)N)NC(=O)[C@@H](NC(=O)[C@@H](NC(=O)[C@@H](NC(=O)[C@H](CCCN=C(N)N)NC(=O)CNC(=O)[C@@H](NC(=O)[C@H](CCCN=C(N)N)NC(=O)[C@@H](NC(=O)[C@@H](NC(=O)[C@@H](NC(=O)CN)C(C)C)C(C)C)C(C)C)C(C)C)C(C)C)C(C)C)C(C)C)C(=O)N[C@@H](CCCN=C(N)N)C(=O)N[C@@H](CCCN=C(N)N)C(N)=O [GVVVRVGRVVVRGVRR] : value? 8

----------
Candida albicans ATCC 10231 data, read-out MIC

CSCC[C@H](NC(=O)[C@H](CCC(N)=O)NC(=O)[C@H](CO)NC(=O)CNC(=O)[C@H](CCCCN)NC(=O)[C@@H](N)CCCN=C(N)N)C(=O)NCC(=O)N[C@@H](CCCCN)C(=O)N[C@@H](CCCCN)C(=O)N[C@@H](CS)C(=O)N[C@@H](CCC(=O)O)C(=O)N[C@@H](CS)C(=O)N1CCC[C@H]1C(=O)O: 3.2 µM
CC(C)[C@H](NC(=O)CNC(=O)[C@@H](N)Cc1cnc[nH]1)C(=O)N[C@@H](CO)C(=O)NCC(=O)N[C@@H](Cc1cnc[nH]1)C(=O)NCC(=O)N[C@@H](CCC(N)=O)C(=O)N[C@@H](Cc1cnc[nH]1)C(=O)NCC(=O)N[C@H](C(=O)N[C@@H](Cc1cnc[nH]1)C(=O)NCC(=O)O)C(C)C: > 101 µM

Would you mind telling me what MIC value was observed for `NC(=O)[C@H](CCCN=C(N)N)NC(=O)[C@H](CCCN=C(N)N)NC(=O)[C@H](Cc1ccccc1)NC(=O)[C@H](Cc1ccccc1)NC(=O)[C@H](CCCN=C(N)N)NC(=O)[C@H](CCCN=C(N)N)NC(=O)[C@H](Cc1ccccc1)NC(=O)[C@@H](N)Cc1ccccc1` ? > 406 µM
